All values here come from patent US9688669B2.

Target: UniProt P41594
Experiment: mGluR5 FLIPR Assay
Conditions: positive modulator activity, HEK293 (ZF) cells with human mGluR5A and rat GLAST, Ca++ response to ~EC10 l-glutamate
pEC50: −log10 of the molar value.
Parameter Measured: pEC50

| Compound | Measured Number |
| --- | --- |
| COCCC#Cc1cncc([C@H]2NC(=O)O[C@@H]2c2cccc(F)c2)c1 | 7.63 |
| O=C1N[C@H](c2cncc(C#CC(O)C3CC3)c2)[C@@H](c2cccc(F)c2)O1 (single isomer, unassigned) [Example 59] | 6.65 |
| O=C1N[C@H](c2cncc(C#CC3CC(F)(F)C3)c2)[C@@H](c2ccc(F)c(F)c2F)O1 | 7.09 |
| O=C1N[C@H](c2cncc(C#CCOc3ccccc3)c2)[C@@H](c2cccc(F)c2)O1 | 7.36 |

(P) COCC#Cc1cncc([C@H]2NC(=O)O[C@@H]2c2cccc(F)c2)c1
(Q) O=C1N[C@H](c2cncc(C#CC3CC(F)(F)C3)c2)[C@@H](c2ccc(F)c(F)c2)O1
## Task Select one: P or Q . Criterion: greater recorded pEC50. I would appreciate it if you answered with the label of your choice.
## Result Q

(I) O=C1N[C@H](c2cncc(C#CC(O)CC3CC3)c2)[C@@H](c2cccc(F)c2)O1 (single isomer, unassigned) [Example 73]
(II) O=C1N[C@H](c2cncc(C#CC3(F)CCCCC3)c2)[C@@H](c2cccc(F)c2)O1
(III) CCCCCC#Cc1cncc([C@H]2NC(=O)O[C@@H]2c2cccc(F)c2)c1
(IV) O=C1N[C@H](c2cncc(C#CCC3CCC3)c2)[C@@H](c2cccc(F)c2)O1
## Task List the 4 entries from lowest pEC50 to highest pEC50 value. Output the labels ranked as instructed.
## Result II, I, III, IV
(II: 7.02, I: 7.55, III: 8.09, IV: 8.77)

###

Biological target: human mGluR5A (Homo sapiens (Human))
Sequence (P41594 other isoform, or with tags, fused parts or gaps): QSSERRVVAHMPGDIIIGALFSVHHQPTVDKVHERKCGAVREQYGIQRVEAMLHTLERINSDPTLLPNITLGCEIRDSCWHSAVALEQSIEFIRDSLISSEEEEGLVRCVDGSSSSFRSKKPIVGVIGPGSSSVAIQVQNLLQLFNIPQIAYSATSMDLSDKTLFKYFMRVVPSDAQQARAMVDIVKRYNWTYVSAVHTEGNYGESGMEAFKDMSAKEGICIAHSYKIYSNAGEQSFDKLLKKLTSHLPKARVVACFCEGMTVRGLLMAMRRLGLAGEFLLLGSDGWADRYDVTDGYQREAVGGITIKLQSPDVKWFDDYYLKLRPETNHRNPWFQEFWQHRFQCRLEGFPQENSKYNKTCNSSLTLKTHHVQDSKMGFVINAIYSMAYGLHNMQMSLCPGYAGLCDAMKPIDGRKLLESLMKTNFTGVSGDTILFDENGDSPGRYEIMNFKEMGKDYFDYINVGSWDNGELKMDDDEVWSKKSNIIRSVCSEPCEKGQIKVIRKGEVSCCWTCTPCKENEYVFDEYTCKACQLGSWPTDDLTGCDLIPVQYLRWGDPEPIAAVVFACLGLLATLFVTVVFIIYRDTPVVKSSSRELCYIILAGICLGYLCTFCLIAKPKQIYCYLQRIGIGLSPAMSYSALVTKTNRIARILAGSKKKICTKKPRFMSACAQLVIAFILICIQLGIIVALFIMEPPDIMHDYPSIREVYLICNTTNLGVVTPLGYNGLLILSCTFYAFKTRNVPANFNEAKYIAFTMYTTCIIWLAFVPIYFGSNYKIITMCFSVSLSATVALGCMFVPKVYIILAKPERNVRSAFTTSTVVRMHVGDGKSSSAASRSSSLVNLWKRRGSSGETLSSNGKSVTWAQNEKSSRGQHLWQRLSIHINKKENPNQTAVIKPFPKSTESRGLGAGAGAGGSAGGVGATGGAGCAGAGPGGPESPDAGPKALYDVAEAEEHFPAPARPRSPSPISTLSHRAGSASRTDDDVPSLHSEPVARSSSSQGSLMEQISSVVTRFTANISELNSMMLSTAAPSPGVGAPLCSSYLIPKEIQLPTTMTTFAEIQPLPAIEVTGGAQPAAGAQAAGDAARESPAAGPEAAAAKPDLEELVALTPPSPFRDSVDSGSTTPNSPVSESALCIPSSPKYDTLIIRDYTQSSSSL
Assay: mGluR5 FLIPR Assay
Conditions: positive modulator activity, HEK293 (ZF) cells with human mGluR5A and rat GLAST, Ca++ response to ~EC10 l-glutamate
pEC50: −log10 of the molar value.
Parameter Measured: pEC50

| Compound | pEC50 |
| --- | --- |
| O=C1N[C@H](c2cncc(C#CCC3CCOC3)c2)[C@@H](c2cccc(F)c2)O1 (stereo partly shown) [Example 64] | 7.70 |

(1) O=C1N[C@H](c2cncc(C#CCC3CCCO3)c2)[C@@H](c2cccc(F)c2)O1 (stereo partly shown)
(2) CCC(O)CC#Cc1cncc([C@H]2NC(=O)O[C@@H]2c2cccc(F)c2)c1 (single isomer, unassigned) [Example 20]
(3) O=C1N[C@H](c2cncc(C#CC(O)CC3CC3)c2)[C@@H](c2cccc(F)c2)O1 (single isomer, unassigned) [Example 74]
(4) O=C1N[C@H](c2cncc(C#CC34CCC(CC3)CC4)c2)[C@@H](c2cccc(F)c2)O1
(5) CC(C)CCC#Cc1cncc([C@H]2NC(=O)O[C@@H]2c2cccc(F)c2)c1
## Task Given 5 compounds, produce a descending ranking by pEC50. Output the labels ranked as instructed.
## Result 5, 1, 3, 2, 4
(5: 8.33, 1: 7.91, 3: 7.56, 2: 7.22, 4: 5.44)

(P) CCCC(O)C#Cc1cncc([C@H]2NC(=O)O[C@@H]2c2cccc(F)c2)c1 (single isomer, unassigned) [Example 15]
(Q) Cc1ccn(CC#Cc2cncc([C@H]3NC(=O)O[C@@H]3c3cccc(F)c3)c2)n1
## Task Select one: P or Q . Criterion: greater recorded pEC50. I would appreciate it if you answered with the label of your choice.
## Result P
(P: 7.69, Q: 7.34)

(A) CC(C)CC#Cc1cncc([C@H]2NC(=O)O[C@@H]2c2cccc(F)c2)c1
(B) O=C1N[C@H](c2cncc(C#CC3CCCCC3)c2)[C@@H](c2cc(F)ccc2F)O1
## Task // which entry reports the smaller pEC50, A or B ? I would appreciate it if you answered with the label of your choice.
## Result B
(B: 6.45, A: 7.94)

(P) O=C1N[C@H](c2cncc(C#CCOCC(F)(F)F)c2)[C@@H](c2cccc(F)c2)O1
(Q) O=C1N[C@H](c2cncc(C#CC3CCOCC3)c2)[C@@H](c2cc(F)ccc2F)O1
## Task Select one: P or Q . Criterion: greater recorded pEC50. I would appreciate it if you answered with the label of your choice.
## Result P
(P: 8.03, Q: 6.55)
